biological target: PDGFRalpha(V561D) (Homo sapiens, UniProt P16234, V561D); construct: recombinant human PDGFRalpha, amino acids 550end containing the V561 D mutation; 6His (N); assay: PDGFRalpha(V561D) assay; conditions: recombinant human PDGFRalpha aa 550-end, 200 μM ATP, 1.4E-06 means 1.4×10^−6, read-out: Inhibition (IC50) of PDGFRα (V561D)
Sequence (P16234 550-1089 V561D): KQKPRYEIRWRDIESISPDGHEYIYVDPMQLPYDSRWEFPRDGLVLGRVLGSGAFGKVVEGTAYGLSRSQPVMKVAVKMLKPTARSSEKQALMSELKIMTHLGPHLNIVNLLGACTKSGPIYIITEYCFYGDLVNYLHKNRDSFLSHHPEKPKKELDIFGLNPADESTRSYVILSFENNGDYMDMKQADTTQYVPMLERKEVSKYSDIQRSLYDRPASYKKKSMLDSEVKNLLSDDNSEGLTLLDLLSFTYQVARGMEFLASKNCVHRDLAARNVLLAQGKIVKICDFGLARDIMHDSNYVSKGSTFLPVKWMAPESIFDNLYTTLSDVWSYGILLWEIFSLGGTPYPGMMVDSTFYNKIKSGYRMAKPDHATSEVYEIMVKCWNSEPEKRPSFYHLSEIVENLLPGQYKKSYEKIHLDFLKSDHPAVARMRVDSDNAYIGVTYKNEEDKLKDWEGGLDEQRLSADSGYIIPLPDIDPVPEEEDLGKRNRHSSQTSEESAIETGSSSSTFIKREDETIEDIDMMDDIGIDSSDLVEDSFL
pIC50: −log10 of the molar value.
In this section, each of the compounds is paired with its reported pIC50.

COMPOUND_STRING: O=c1[nH]c2ccccc2cc1-c1cn(-c2ccc(N3CCCNCC3)cc2)nn1
pIC50: 7.85

COMPOUND_STRING: CN1CCN(C(=O)c2ccc(-n3cc(-c4cc5cc(Cl)ccc5[nH]c4=O)nn3)cc2)CC1
pIC50: 9.00

COMPOUND_STRING: O=C(c1ccc(-n2cc(-c3cc4ncccc4[nH]c3=O)nn2)cc1)N1CCOCC1
pIC50: 5.77

COMPOUND_STRING: O=C1COCCN1c1ccc(-n2cc(-c3cc4ccncc4[nH]c3=O)nn2)cc1
pIC50: 7.38

COMPOUND_STRING: CN1CCN(C(=O)c2ccc(-n3cc(-c4cc5c(F)cccc5[nH]c4=O)nn3)cc2)CC1
pIC50: 7.92

###

Molecular target: c-Kit(V654A) (Homo sapiens, UniProt P10721, V654A)
Construct: amino acids 544-end containing the V654A mutation; GST (N)
Sequence (P10721 544-976 V654A): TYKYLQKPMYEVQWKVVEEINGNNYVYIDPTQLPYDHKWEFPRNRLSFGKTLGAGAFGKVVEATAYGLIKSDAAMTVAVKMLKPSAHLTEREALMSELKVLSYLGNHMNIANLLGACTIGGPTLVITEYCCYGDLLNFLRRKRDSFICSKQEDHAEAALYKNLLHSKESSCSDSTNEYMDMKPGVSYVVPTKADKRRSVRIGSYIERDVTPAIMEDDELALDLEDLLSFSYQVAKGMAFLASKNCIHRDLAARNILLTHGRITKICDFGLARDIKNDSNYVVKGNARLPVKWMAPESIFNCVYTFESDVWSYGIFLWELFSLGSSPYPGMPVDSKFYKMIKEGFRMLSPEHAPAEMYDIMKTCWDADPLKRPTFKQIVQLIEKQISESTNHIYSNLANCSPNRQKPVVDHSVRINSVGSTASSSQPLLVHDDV
Assay: c-Kit(V654A) assay
Settings: recombinant human c-Kit aa 544-end, 200 μM ATP, 1.4E-06 means 1.4×10^−6, read-out: Inhibition (IC50) of c-KIT (V654A)
Description: c-Kit(V654A) (N-terminal GST-tagged, recombinant human c-Kit, amino acids 544-end containing the V654A mutation) is incubated with 8 mM MOPS pH 7.0, 0.2 mM EDTA, 250 μM GGMEDIYEFMGGKKK, 10 mM MgAcetate and [gamma-33P-ATP] (specific activity approx. 500 cpm/pmol, concentration 200 μM). The reaction is initiated by the addition of the MgATP mix. After incubation for 40 minutes at room temperature, the reaction is stopped by the addition of 3% phosphoric acid solution. […]
pIC50: −log10 of the molar value. Where a name gives a salt, the structure may show the parent alone.

COMPOUND: Cc1ccc2[nH]c(=O)c(-c3cn(-c4ccc(C(=O)N5CCN(C)CC5)cc4)nn3)cc2c1
pIC50: 7.43

COMPOUND: NC(=O)[C@@H]1CCCN1C(=O)c1ccc(-n2cc(-c3cc4cc(F)ccc4[nH]c3=O)nn2)cc1
pIC50: 7.96

COMPOUND: CN1CC[C@@H](Oc2ccc(-n3cc(-c4cc5cc(F)ccc5[nH]c4=O)nn3)cc2)C1
pIC50: 7.72

COMPOUND: O=C(c1cccc(-n2cc(-c3cc4cc(F)c(F)cc4[nH]c3=O)nn2)c1)N1CCC(N2CCCC2)C1 (centres unmarked)
pIC50: 7.08

COMPOUND: Cc1ccc2[nH]c(=O)c(-c3cn(-c4ccc(C(=O)N5CCNCC5)cc4)nn3)cc2c1
pIC50: 7.40

COMPOUND: CN[C@@H]1CCN(C(=O)c2ccc(-n3cc(-c4cc5cc(F)ccc5[nH]c4=O)nn3)cc2)C1 [A311, hydrochloride]
pIC50: 7.68

COMPOUND: CN1CCC(COc2ccc(-n3cc(-c4cc5ccccc5[nH]c4=O)nn3)cc2)CC1
pIC50: 7.42

COMPOUND: O=C(c1ccc(-n2cc(-c3cc4cc(F)ccc4[nH]c3=O)nn2)cc1)N1CCCC12COC2
pIC50: 7.30

###

biological target: PDGFRalpha(V561D) (Homo sapiens, UniProt P16234, V561D); construct: recombinant human PDGFRalpha, amino acids 550end containing the V561 D mutation; 6His (N); experiment: PDGFRalpha(V561D) assay; settings: recombinant human PDGFRalpha aa 550-end, 200 μM ATP, 1.4E-06 means 1.4×10^−6, read-out: Inhibition (IC50) of PDGFRα (V561D)
pIC50: −log10 of the molar value.
In this section, each of the compounds is paired with its reported pIC50.
EXPERIMENTAL_READOUT: pIC50

COMPOUND: CN(C)C[C@@H]1CCCN1C(=O)c1ccc(-n2cc(-c3cc4cc(F)ccc4[nH]c3=O)nn2)cc1
OBS_VALUE: 7.44

COMPOUND: CN1CCN(c2ccc(-n3cc(-c4cc5cc(F)ccc5[nH]c4=O)nn3)cc2)C(=O)C1
OBS_VALUE: 8.40

COMPOUND: CN1CCN(C(=O)c2ccc(-n3cc(-c4cc5cc(Cl)ccc5[nH]c4=O)nn3)cc2)CC1=O
OBS_VALUE: 9.48

COMPOUND: CCN(CC)CCNC(=O)c1ccc(-n2cc(-c3cc4cc(F)c(Cl)cc4[nH]c3=O)nn2)cc1
OBS_VALUE: 5.80

COMPOUND: O=C(c1ccc(-n2cc(-c3cc4cc(Cl)ccc4[nH]c3=O)nn2)cc1)N1CC[C@H](F)C1
OBS_VALUE: 8.96

COMPOUND: O=c1[nH]c2ncccc2cc1-c1cnn(-c2ccccc2)c1
OBS_VALUE: 6.77

COMPOUND: Cc1ccc2cc(-c3cn(-c4ccc(C(=O)N5CCOCC5)cc4)nn3)c(=O)[nH]c2c1
OBS_VALUE: 8.30

COMPOUND: CO[C@@H]1CCN(C(=O)c2ccc(-n3cc(-c4cc5cc(F)ccc5[nH]c4=O)cn3)cc2)C1
OBS_VALUE: 7.68

COMPOUND: O=C1OCCN1c1ccc(-n2cc(-c3cc4cc(F)ccc4[nH]c3=O)nn2)cc1
OBS_VALUE: 7.12

COMPOUND: COCCO[C@@H]1CCN(C(=O)c2ccc(-n3cc(-c4cc5cc(Cl)ccc5[nH]c4=O)nn3)cc2)C1
OBS_VALUE: 7.00

COMPOUND: CN(C)C1CCN(C(=O)c2ccc(-n3cc(-c4cc5cc(F)ccc5[nH]c4=O)nn3)cc2)CC1
OBS_VALUE: 7.60

COMPOUND: COc1cc(-n2cc(-c3cc4ccccc4[nH]c3=O)nn2)cc(OC)c1OC
OBS_VALUE: 6.24

COMPOUND: O=C(c1ccc(-n2cc(-c3cc4cc(Cl)ccc4[nH]c3=O)nn2)cc1)N1CCC(F)(F)C1
OBS_VALUE: 9.17

COMPOUND: O=c1[nH]c2ccc(F)cc2cc1-c1cn(-c2cccc(OCCN3CCOCC3)c2)nn1 [A94a]
OBS_VALUE: 7.27

COMPOUND: CO[C@@H]1C[C@H](CO)N(C(=O)c2ccc(-n3cc(-c4cc5cc(F)ccc5[nH]c4=O)cn3)cc2)C1
OBS_VALUE: 8.92

COMPOUND: COC[C@@H]1CC[C@@H](COC)N1C(=O)c1ccc(-n2cc(-c3cc4cc(F)ccc4[nH]c3=O)nn2)cc1
OBS_VALUE: 7.34

COMPOUND: O=c1[nH]c2ccncc2cc1-c1cn(-c2ccc(F)cc2)nn1
OBS_VALUE: 6.48

###

molecular target: c-Kit(V654A) (Homo sapiens, UniProt P10721, V654A); construct: amino acids 544-end containing the V654A mutation; GST (N); experiment: c-Kit(V654A) assay; conditions: recombinant human c-Kit aa 544-end, 200 μM ATP, 1.4E-06 means 1.4×10^−6, read-out: Inhibition (IC50) of c-KIT (V654A)
Output true (1) for records whose IC50 is lower than 0.03 µM, false (0) for records at or above 0.03 µM.

COMPOUND: CN(C)C1CCN(C(=O)c2ccc(-n3cc(-c4cc5cc(Cl)ccc5[nH]c4=O)nn3)cc2)C1 (centres unmarked)
STUDY_SYSTEM: c-Kit(V654A) (Homo sapiens, UniProt P10721, V654A)
LABEL_CLASS: false (0)

COMPOUND: O=C(c1ccc(-n2cc(-c3cc4cc(F)ccc4[nH]c3=O)nn2)cc1)N1CCCCC1CO (centres unmarked)
STUDY_SYSTEM: c-Kit(V654A) (Homo sapiens, UniProt P10721, V654A)
LABEL_CLASS: false (0)

COMPOUND: CO[C@@H]1C[C@H](CO)N(C(=O)c2ccc(-n3cc(-c4cc5cc(F)ccc5[nH]c4=O)cn3)cc2)C1
STUDY_SYSTEM: c-Kit(V654A) (Homo sapiens, UniProt P10721, V654A)
LABEL_CLASS: false (0)

COMPOUND: O=C(c1ccc(-n2cc(-c3cc4c(F)cccc4[nH]c3=O)nn2)cc1)N1CCOCC1
STUDY_SYSTEM: c-Kit(V654A) (Homo sapiens, UniProt P10721, V654A)
LABEL_CLASS: true (1)

COMPOUND: COC[C@@H]1CC[C@@H](COC)N1C(=O)c1ccc(-n2cc(-c3cc4cc(F)ccc4[nH]c3=O)nn2)cc1
STUDY_SYSTEM: c-Kit(V654A) (Homo sapiens, UniProt P10721, V654A)
LABEL_CLASS: false (0)

COMPOUND: CN(C)C1CCN(C(=O)c2ccc(-n3cc(-c4cc5cc(F)ccc5[nH]c4=O)nn3)cc2)C1 (centres unmarked)
STUDY_SYSTEM: c-Kit(V654A) (Homo sapiens, UniProt P10721, V654A)
LABEL_CLASS: false (0)

COMPOUND: CO[C@H]1CCN(S(=O)(=O)c2ccc(-n3cc(-c4cc5cc(F)ccc5[nH]c4=O)nn3)cc2)C1
STUDY_SYSTEM: c-Kit(V654A) (Homo sapiens, UniProt P10721, V654A)
LABEL_CLASS: true (1)

COMPOUND: O=C(c1ccc(-n2cc(-c3cc4cc(F)c(F)cc4[nH]c3=O)nn2)cc1)C1CCNCC1
STUDY_SYSTEM: c-Kit(V654A) (Homo sapiens, UniProt P10721, V654A)
LABEL_CLASS: true (1)
